Reference for the values: patent US20230365675A1

Recorded measurements of Octet signal, one per entry
Biological target: Biotinylated CD33 protein (UniProt P20138)
Sequence (P20138 18-259 limits assumed): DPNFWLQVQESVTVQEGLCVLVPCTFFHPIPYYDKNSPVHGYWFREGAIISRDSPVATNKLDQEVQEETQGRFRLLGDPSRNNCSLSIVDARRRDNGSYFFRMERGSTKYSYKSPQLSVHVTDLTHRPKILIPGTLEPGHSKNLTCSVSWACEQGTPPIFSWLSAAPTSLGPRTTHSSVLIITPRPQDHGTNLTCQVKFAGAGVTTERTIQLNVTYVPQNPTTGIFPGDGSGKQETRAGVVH
Test: Octet competition on biotinylated CD33; competitor 429

sdCD33_7 (VHH, sdAb from a naive llama phage library; also called 420; sdAb420) VHH: EVQLVESGGGLVQPGGSLRLSCVASGFTFKDYGMTWVRQAPGKALEWVSDINSAGDGIYYSDSVKGRFTISRDDSKGTLYLQMNSLTPEDTAIYYCAAERQRAGDVKRSLAPITAHIWGQGTQVTVSS = -0.124
sdCD33_5 (VHH, sdAb from a naive llama phage library; also called 413; sdAb413) VHH: QVQLQESGGGLVQPGGSLRLSCAASGSVFSIYAMAWYRQAPGKQRELVAVITSGGATNYADSVKGRFTISRDIAKKTLYLQMNTLKPEDTAVYYCYAHLLIQPFDRFYDYWGQGTQVTVSS = -0.0887
sdCD33_2 (VHH) VHH: QVQLVQPGGSLRLFCVASEEFFSIYAMGWYRQAPGKQHEMVARFTRDGKITYADSAKGRFTITRDAKNTLNLQMNGLIPEDTAVYYCNINHYWGQGTQVTVSS = 0.0422
sdCD33_8 (VHH, sdAb from a naive llama phage library; also called 424; sdAb424) VHH: QVQLVESGGGLVQAGGSLRLSCAASGGAFSTYTMGWFRQAPGKEREFVAAIAWTGTHTYYSDSVKGRFTISRDNDKNTVFLQMNSLKPEDTAVYYCAQASSRYRAVTDSLSENHWGPGTQVTVST = 0.163

Pending binder:
For sdCD33_4 (VHH) VHH: QVKLEESGGGSVQAGESLRLSCTASGITFRDYDIDWYRQAPGKEREWLATITPSGTTHYPDSVKGRATISRDSAKNTVYLQMNSLKPEDTARYECNTLAYWGSGTQVTVSS the binder record lists Octet signal as -0.26
